// data source = the supplement of paper PMC10567573

B1: ANKRD40 (parent)
chain: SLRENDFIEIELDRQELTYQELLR

- Variants of: B1
- TEST_METHOD_NOTES: protein stability index of a GFP-peptide fusion (GPS, HEK-293T) (PSI 1-6); higher = more stable;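 note: lentivirally expressed fusions sorted by FACS into six bins by GFP to DsRed ratio, PSI derived from sequencing read proportions per bin multiplied by bin number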
- TEST_CONDITIONS: c terminus: a fixed tail appended
OBSERVED_PROPERTY: protein stability index

• SLRETDFIEIELDRQELTYQELLR [N5T] = 3.09
• SGRENDFIEIELDRQELTYQELLR [L2G] = 3.02
• SLRQNDFIEIELDRQELTYQELLR [E4Q] = 2.97
• SLREGDFIEIELDRQELTYQELLR [N5G] = 3.03
